# test name: compound autofluorescence in ABCB1-expressing CCRF-Adr cells, confirmation, artefact control for ABC transporter inhibitor project, cell-based, 488/530 nm, flow cytometry (AID 1483)
# condition context: compound autofluorescence 488/530 nm, at 6.6 µM, active compounds read high
Some of the results follow.
Kindly return MET if reported fluorescence is no lower than -3; return NOT MET if it is lower.

Below, 4 molecules whose answers are already recorded.
molecule="Cc1cccc2cc(CN(Cc3cccs3)C(c3nnnn3C3CCCC3)C(C)C)c(=O)[nH]c12 (stereo unspecified)" classification="NOT MET"
molecule=CCN1/C(=C/c2ccc3ccc(C)cc3[n+]2CC)Sc2ccccc21 classification=MET
molecule="COc1ccc(C)cc1NC(=O)C(Sc1ccccc1)c1ccccc1 (stereo unspecified)" classification=MET
molecule="C=CCn1c(SCCOc2ccc(OC)cc2)nnc1C(NC(=O)c1ccc(OC)cc1)C(C)C (stereo unspecified)" classification=MET

Threshold query (fluorescence >= -3) on `O=C(Cc1c[nH]c2ccccc12)N/N=C/c1cccc(F)c1`
MET

----------
# test name: compound autofluorescence in ABCB1-expressing CCRF-Adr cells, confirmation, artefact control for ABC transporter inhibitor project, cell-based, 488/530 nm, flow cytometry (AID 1483)
# condition context: compound autofluorescence 488/530 nm, at 6.6 µM, active compounds read high
The list shows a part of the results. The source made the active and inactive calls.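 The calls were made as follows: active = fluorescence beyond the plate control mean plus 3 SD, with a fluorescence-to-maximum score over 2 (cut at about 25 in these data); inactive = the rest.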
fluorescence values, listed per item

molecule=COc1cccc(NC(=O)c2ccc(Cn3cc([N+](=O)[O-])cn3)o2)c1 measurement_label=fluorescence experimental_result="5.61 (inactive)"
molecule=C/C(=N\Nc1ncc(Cl)cc1Cl)c1ccc(S(=O)(=O)NCc2ccco2)cc1 measurement_label=fluorescence experimental_result="-2.49 (inactive)"
molecule=CCOC(=O)c1sc(NC(=O)CSc2nnc(-c3ccco3)o2)c(C(=O)OCC)c1C measurement_label=fluorescence experimental_result="0.61 (inactive)"
molecule=COc1ccc(-n2c(C)cc(C(=O)COC(=O)c3cc(OC)c(OC)cc3NC(=O)c3cccs3)c2C)cc1 measurement_label=fluorescence experimental_result="2.26 (inactive)"

Now consider the entry below.
fluorescence measured on Cc1ccc(OCC(O)CN2CCN(CC(O)COc3ccc(C)cc3Cl)CC2)c(Cl)c1 (stereo not given) = 22.4 (inactive)

Origin of values: PubChem BioAssay AID1483
